assay: NCI Yeast Anticancer Drug Screen. Data for the rad50 strain (AID 155);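 note: 0% = growth of vehicle-only cultures of the same strain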; details: S. cerevisiae rad50 strain growth inhibition; at 50.0 µM; active compounds read high
Compounds without any hit were thinned out: in the full panel of roughly 79,000, 15% have a hit.
Recorded growth inhibition values for a group of compounds are listed next.
# value in %; strip the unit string

Solved cases below.
> print(dat)
                                   compound  result.value
1  CCCCCCN(CCCCCC)P(=O)(N1CC1C)N1CC1C (centres undefined)         -11.6
2  O=c1oc2ccccc2c(O)c1/C=N\c1nc(-c2ccccc2)cs1          8.95
3  O=c1[nH]c2c([N+](=O)[O-])cc(Cl)cc2nc1/C=C(\O)c1ccc2ccccc2c1          74.3

Report growth inhibition for O=[N+]([O-])c1cc(CNCCO)c(O)c2ncccc12 please.
98.7

Query COC(=O)C(=O)C(=O)C1CCCC(c2ccccc2)C1=O (centres undefined) next
96.3

Query CCC(=O)N(CCC(C)C)c1ccccc1 next
11.8

Query NC(=O)C12OC3CC(CC(C3)O1)O2 next
5.95

Query O=C(O)c1cc(Br)ccc1OCc1ccc(Cl)cc1 next
43.9

Query Cc1cccc(NC(=O)Oc2ccc(Cl)c3cccnc23)c1 next
88.5

Query N#CSCC(=O)c1ccccc1 next
98.8

Query CCCC(=O)NCCNC(=O)CCC next
4.35

----------
assay: NCI Yeast Anticancer Drug Screen. Data for the rad50 strain (AID 155);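 note: 0% = growth of vehicle-only cultures of the same strain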; conditions: S. cerevisiae rad50 strain growth inhibition; at 50.0 µM
About 79,000 compounds went through this panel and 15% of them were active in at least one assay; those are over-represented in the sample as a whole. The source made the active and inactive calls. Rule as the data show it: active = growth inhibition above about 70%; inactive = the rest.
Allowed answers: 1 (active), -1 (inactive)

> print(dat)
                                   compound  category.label
1  CCCCC(CC)COP(=O)(OCC(CC)CCCC)OCC(CC)CCCC (stereo unspecified)              -1
2        CCC(=O)Oc1c(Br)c(Br)c(Br)c(Br)c1Br              -1
3  O=C(CNc1cccc(Cl)c1)Nn1c(-c2ccccc2)nc2ccccc2c1=O               1
4  Cc1ccc(C2COc3cc(O)c(O)cc3C2)cc1 (stereo unspecified)               1
5                      O=C(Nc1ccccc1)OCCCCl              -1

Next, consider the following compound.
Assay result, entry Cc1cccc(-c2nnc(-c3cccc(C)c3)o2)c1 — outcome?
-1

----------
experiment: NCI Yeast Anticancer Drug Screen. Data for the sgs1 mgt1 strain (AID 161);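 note: 0% = growth of cultures given vehicle only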; settings: S. cerevisiae sgs1 mgt1 strain, at 50.0 µM, active compounds read high
The panel holds about 79,000 compounds, 15% with a hit somewhere; the sample as a whole holds those more often.
endpoint.name: growth inhibition (%)
# value in %; strip the unit string

Solved cases below.
> print(dat)
                                   molecule      endpoint.name  result.value
1  CN(C)c1ccc(C(c2ccc(N(C)C)cc2)c2ccc3c(c2)OCO3)cc1  growth inhibition          95.8
2  O=c1ccn(C2OC(COC(c3ccccc3)(c3ccccc3)c3ccccc3)C(O)C2O)c(=O)[nH]1 (centres undefined)  growth inhibition          93.3
3  O=C(O)c1cc(C(=O)O)c(C(=O)O)cc1C(=O)O.[NH-]C1CCCC1.[NH-]C1CCCC1.[NH-]C1CCCC1.[NH-]C1CCCC1.[Pt+2].[Pt+2]  growth inhibition          99.5

Please find the next molecule below.
Report growth inhibition for CC1=C(C)CC2C(=O)C(C(O)CC(C)C)=CC(=O)C2C1 (centres undefined) please.
98.8

----------
assay: NCI Yeast Anticancer Drug Screen. Data for the sgs1 mgt1 strain (AID 161);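 note: 0% = growth of cultures given vehicle only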; details: S. cerevisiae sgs1 mgt1 strain, at 50.0 µM, active compounds read high
The panel holds about 79,000 compounds, 15% with a hit somewhere; the sample as a whole holds those more often.
Recorded growth inhibition values for a group of compounds are listed next.
# value in %; strip the unit string

Solved cases below.
compound	growth inhibition (%)
CCN1CCC(O)(/C=C/c2cccc(C)c2)C(C(=O)/C=C/c2cccc(C)c2)C1 (stereo unspecified)	90.8
COc1ccc(C(c2cc3c(cc2O)OCO3)N2CCCC2)c(OC)c1 (stereo unspecified)	98.8
CC/C(C)=C1\CCC(CN2CCOCC2)C1=O (stereo unspecified)	66.3
CC(O[Si](c1ccccc1)(c1ccccc1)C(C)(C)C)[C@H](NC(=O)OC(C)(C)C)C(=O)O[Si](c1ccccc1)(c1ccccc1)C(C)(C)C (stereo partly specified)	92.8
Cc1cccc(NC(=O)C(=O)C(C2OC(=O)c3ccccc32)[N+](=O)[O-])c1C (stereo unspecified)	87.7

Report growth inhibition for CCCCCCCOC(=O)CSC#N please.
99

Query CN(C)C(=S)SC1(CN2CCOCC2)COc2c(Cl)cc(Cl)cc2C1=O (stereo unspecified) next
95.3

Query O=c1oc2ccccc2c(O)c1/C=N\c1nc(-c2ccccc2)cs1 next
31.9

Query O=C(c1ccc(Br)cc1)C1OC12C(=O)Nc1ccccc12 (stereo unspecified) next
99.7

Query [N-]=[N+]=Nc1c(C=O)c(=O)n(-c2ccccc2)c2ccccc12 next
79

----------
Experiment: NCI Yeast Anticancer Drug Screen. Data for the rad50 strain (AID 155);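 note: 0% = growth of vehicle-only cultures of the same strain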
Conditions: S. cerevisiae rad50 strain growth inhibition; at 50.0 µM (retest, dose inferred, filed as 5.0)
Protocol: Growth inhibition of yeast strains with defined genetic alterations is measured as a screen for potential anti-cancer activity. Selected strains with alterations in DNA damage repair or cell cycle control were exposed to compounds and growth inhibition was measured relative to vehicle treated controls. The strain used in this assay is rad50
Compounds without any hit were thinned out: in the full panel of roughly 79,000, 15% have a hit. Active and inactive are the calls of the source. No stated cut-off is given here; in the data, active means growth inhibition above about 70%; inactive means the rest.
Allowed answers: active, inactive

Record excerpt, results attached:
> print(dat)
                                   compound  category.label
1  O=C(O)c1c(-c2ccccc2)cc(-c2ccccc2)cc1-c1ccccc1          active
2  CC1(C)CC(N(C(=O)/C=C/c2ccc([N+](=O)[O-])o2)C2CCCCC2)CC(C)(C)N1          active
3        CN(CCO)CCn1cnc2c1c(=O)n(C)c(=O)n2C        inactive

Assay result, entry CC[N+](CC)(CC)Cc1ccc(C[N+](CC)(CC)CC)cc1 — outcome?
inactive

Query O=[N+]([O-])/C=C\c1csc2ccccc12 next
active

Query COc1ccc(NC(=O)CSC(N)=O)cc1 next
inactive

Query O=C(NN1C(=O)C(Cl)C1c1ccc(O)cc1)c1ccccc1O (stereo unspecified) next
active

Query CCCC(=O)OCc1cc(=O)n(C)c2c3c4c(cc12)c(C)cc(=O)n4CO3 next
active

Query CC(/C=C/c1ccc(Cl)c(Cl)c1)=N\NC(N)=S next
inactive

Query Cc1ccc(C)c([N+](=O)[O-])c1 next
inactive

Query COC(=O)/C(=C/C=C(c1ccccc1)c1ccccc1)N(C(C)=O)C(C)=O next
inactive

----------
assay: NCI Yeast Anticancer Drug Screen. Data for the bub3 strain (AID 167); conditions: S. cerevisiae bub3 mutant strain, at 5.0 µM (retest, dose inferred, filed as 0.5), active compounds read high
Compounds without any hit were thinned out: in the full panel of roughly 79,000, 15% have a hit.
endpoint.name: growth inhibition (%)
# value in %; strip the unit string

Report growth inhibition for COC(=O)C1CCC(=O)N1C(c1ccc(OC)cc1)c1cc(OC)c(OC)c(OC)c1 (stereo not given) please.
43

Query O=C1/C(=C/N2CCN(c3ccccc3)CC2)Cc2c(Cl)cccc21 next
-9

----------
experiment: NCI Yeast Anticancer Drug Screen. Data for the bub3 strain (AID 167); conditions: S. cerevisiae bub3 mutant strain, at 50.0 µM
Compounds without any hit were thinned out: in the full panel of roughly 79,000, 15% have a hit. Activity calls are given as the source filed them. Rule as the data show it: active = growth inhibition above about 70%; inactive = the rest.
Allowed answers: YES = active, NO = inactive

Record excerpt, results attached:
> print(dat)
                                   compound  category.label
1            O=C1C=CC(=O)N1c1ccc(Br)c(Cl)c1              NO
2        CCCCCCCCCCCN1C(=O)c2ccccc2S1(=O)=O              NO
3  COc1ccccc1NC(=O)/C(=C\N1C(=O)/C(=C/c2cc(OC)c(OC)c(OC)c2)SC1=S)C(C)=O              NO
4  Cc1cc(C)c(O)c(Cc2cc(Cl)cc(Cc3cc(C)cc(C)c3O)c2O)c1             YES

Assay result, entry CN1C=Cc2ccccc2C1C(C1c2ccccc2C=CN1C)[N+](=O)[O-] (stereo not given) — outcome?
NO

Query Oc1ccc(O)c2c1CC=C(Cl)C2 next
NO

Query COc1cc(C2c3cc4c(cc3OC(NNc3ccccc3)C2C)OCO4)cc(OC)c1O (stereo not given) next
YES

Query Clc1ccc([O][In]([O]c2ccc(Cl)cn2)[O]c2ccc(Cl)cn2)nc1 next
NO

Query C[N+]1(Cc2ccc([N+](=O)[O-])cc2)CCC[C@H]1c1ccc[n+](Cc2ccc([N+](=O)[O-])cc2)c1 (stereo not given in full) next
NO

Query CCN(CC)CC(O)c1c(-c2ccccc2)c(-c2ccccc2)c2n1CCC2 (stereo not given) next
YES
